Provenance of the data: patent US20250129067A1

System: Oligodendrocyte progenitor cells (OPCs)
Test: In vitro OPC differentiation assay, GPR17 expression (immunocytochemistry)
Conditions: 3 μM (10× concentration, final 0.3 μM); 72 hours; fold change over vehicle
MEASURED_QUANTITY: GPR17 Fold Induction (Over Vehicle; 3 μM)

The examples below pair each entry with its known result.
Cn1cc(-c2ccc3c(N4CCN(C(=O)CC(C)(C)C)CC4)cnn3c2)cn1 ... 1.14
Cn1cc(-c2ccc3c(NCC(=O)Nc4ncc(Cc5ccccc5)cn4)cnn3c2)cn1 ... 4.76
COCCn1cncc1-c1ccc2c(N3CCN(C(=O)OC(C)(C)C)CC3)cnn2c1 ... 1.19

a. CN(CCN(C)c1cnc2cc(-c3cnn(C)c3)ncn12)C(=O)OC(C)(C)C
b. Cn1cc(-c2ccc3c(N4CCN(C(=O)OCc5csc(Cl)c5)CC4)cnn3c2)cn1
c. Cn1cc(-c2ccc3c(N4CCN(C5=NCC(c6ccccc6)O5)CC4)cnn3c2)cn1 (stereo not shown)
d. Cn1cc(-c2ccc3c(N4CCN(S(=O)(=O)CCc5ccccc5)CC4)cnn3c2)cn1
Enquiry: Order the items by recorded GPR17 Fold Induction (Over Vehicle; 3 μM); the first position goes to the largest value. Reply: labels, ordered per the request.
Return: b, c, d, a
(b: 12.24, c: 4.54, d: 2.80, a: 1.16)
